# credit: PubChem BioAssay (NCI)

System: T-47D breast
ASSAY NAME: NCI tumour cell line growth inhibition, 48 h
READOUT TYPE: TGI

GET /values?readout=TGI&item= CNC1=C(C)C(=O)C2=C(C1=O)C(COC(N)=O)C1(OC)C3NC3CN21 (configuration not stated)
18.1 µM

Continue with Cn1cccc1C1CC(=O)N(CCC[Se]C#N)C1=O (configuration not stated)
12.8 µM

// query: "c1ccc2c(c1)SCCCSCCCS2"
> 100 µM

Proceed to CCOC(=O)C(NC(=O)Nc1ccccc1F)(OC)C(F)(F)F (configuration not stated)
> 100 µM

And then "O=C1c2ccccc2-c2ccc(N(Cc3ccc(Br)cc3)Cc3ccc(Br)cc3)cc21" , what is it?
> 100 µM

Now the molecule "COc1ccc(N=C/C=C/C(=C/COC(C)=O)OC(C)=O)cc1"
> 100 µM

Would you mind doing CC1OC(OC2C(OC3CCC4(C)C(CCC5(C)C4CC=C4C6CC(C)(C)CCC6(CO)C(O)CC45C)C3(C)C)OC(C(=O)O)C(OC3OC(COC4OC(CO)C(O)C(O)C4O)C(O)C(O)C3O)C2O)C(O)C(O)C1O (configuration not stated) as well?
27.8 µM

---

Tested on: HL-60(TB) leukemia
ASSAY NAME: NCI tumour cell line growth inhibition, 48 h; in the data active = GI50 below about 0.43 µM; inactive = the rest
Write down the outcome that applies. Available outcomes: active, inactive

Could you check what this test reported for "Cn1cc(-c2ccc3c(c2)ncn3-c2ccc(CC(=O)Nc3cc(C(C)(C)C)on3)cc2)cn1" ?
inactive

Please give the result for "C[C@@H](Oc1cc(-n2cnc3ccc(OCC4CCN(C)CC4)cc32)sc1C(N)=O)c1ccccc1C(F)(F)F" too.
active

Continue with "CC(=O)[CH-]C(=O)c1ccccc1.CC(=O)[CH-]C(=O)c1ccccc1.[O-]Cc1cccs1.[O-]Cc1cccs1.[Ti+4]"
inactive

Okay, and "CC/C(=C(/CC)c1ccc(OP(=O)([O-])[O-])cc1)c1ccc(OP(=O)([O-])[O-])cc1.N.N.N.N.[Pt+4].[Pt+4]" ?
inactive

Same for "CCCCCCCCCCCCCCCc1ccc(C(=O)C[n+]2ccccc2)cc1"
inactive

Then what about the compound "C/C=C(\C)C(=O)O[C@@H]1C=CC(=O)O[C@H]1COC(=O)[C@H](C)O" ?
inactive

Now consider COc1cccc(C2C3=C(COC3=O)N(CCO)c3cc4c(cc32)CCC4)c1 (stereo not given) and answer again.
active

Further, for "Cn1cc(-c2nonc2-c2cn(C)c3ccc(Br)cc23)c2ccccc21" ?
inactive

Now consider "Cn1cc(-c2csc(-c3cn(C)c4ncccc34)n2)c2ccccc21" .
active

Another compound: "COc1cc2nc(-c3ccc(Cl)cc3)cc(OCCCN3CCC(O)CC3)c2cc1OC"
inactive

Try this compound next: "COc1cc(-c2cn(-c3ccc(Cl)cc3)c(=O)n2-c2ccccc2)cc(OC)c1OC"
inactive

Follow-up entry: "N=C(N)c1ccc(-c2ccc(-c3ccccc3)o2)cc1"
inactive

Repeat with CC1OC(OC2C(OC3CCC4(C)C(CCC5(C)C4CC=C4C6CC(C)(C)CCC6(CO)C(O)CC45C)C3(C)C)OC(C(=O)O)C(OC3OC(COC4OC(CO)C(O)C(O)C4O)C(O)C(O)C3O)C2O)C(O)C(O)C1O (stereo not given)
inactive

Next compound: "Nc1nccc(C#Cc2cncnc2Nc2ccc(OCc3cccc(F)c3)c(Cl)c2)n1"
inactive

// same read-out, input: "COc1ccc2c(c1)C(=O)/C(=C/c1ccc(OCC(=O)c3ccc(Cl)cc3)cc1)O2"
inactive
